# System: Tov112D
# experiment-description: Primary qHTS to identify gynecologic anti-cancer compounds using libraries of approved drugs and bioactive compounds (AID 1345084); also: nearly all actives have a fitted effect of over 55% in size
# condition-summary: Gynecologic cancer cell panel viability, ATPlite luminescence, 48 h; series mostly up to 57.5 µM
Records with an inconclusive call do not appear. Calls of active or inactive are those of the source. Calls follow the shape of the dose curve; as a rule, active = well fitted cell-killing curve with a large enough effect; inconclusive = small, poorly fitted or top-dose-only effect, or effect the other way; inactive = flat fitted curve, though single readings scatter. Where a SMILES comes first, the peptide text is derived from it. [ ]: non-standard residue; d: D form. ξ: configuration not given here. ξPhe(βξ-Me) = CC(c1ccccc1)C(N)C(=O)O; GABA = NCCCC(=O)O
Write down the outcome that applies. Available outcomes: active, inactive

**Q:** Which result was noted for this compound in the test: C[C@@H]1C[C@@H]2O[C@H]2/C=C\C=C\C(=O)Cc2c(Cl)c(O)cc(O)c2C(=O)O1
**A:** inactive

**Q:** Which result was noted for this compound in the test: CCCCNc1ccc(-c2ccc(CN3CCOCC3)cn2)c(NC2CCC(O)CC2)c1 (stereo unspecified)
**A:** inactive

**Q:** Which result was noted for this compound in the test: O=C(O)c1c(O)c(-c2ccccc2)nc2ccccc12
**A:** inactive

**Q:** Which result was noted for this compound in the test: C/C1=C\CC[C@]2(C)O[C@@H]2[C@H](O)[C@H](C(C)C)[C@H](OC(=O)/C=C/c2ccccc2)C1
**A:** inactive

**Q:** Which result was noted for this compound in the test: Cc1onc(C(=O)N2CCN(C(c3ccc(Cl)cc3)c3ccc(Cl)cc3)CC2)c1[N+](=O)[O-]
**A:** active

**Q:** Which result was noted for this compound in the test: CCN(CC)Cc1ccc(C(=O)N(CCc2ccccc2OC)[C@@H]2CCNC2)cc1
**A:** inactive

**Q:** Which result was noted for this compound in the test: CC1(C)CC[C@]2(C(=O)O)CC[C@]3(C)C(=CCC4[C@@]5(C)CC[C@H](O[C@@H]6O[C@H](C(=O)O)[C@@H](O[C@@H]7OC[C@@H](O)[C@H](O)[C@H]7O)[C@H](O)[C@H]6O)C(C)(C)C5CC[C@]43C)C2C1O (stereo partly specified)
**A:** inactive

**Q:** Which result was noted for this compound in the test: C/C(=C\CCC1(C)C2CCC(C2)C1(C)O)C(=O)O (stereo unspecified)
**A:** inactive

**Q:** Which result was noted for this compound in the test: CC1(C)CC2C(O)c3cocc3CC(C)(O)C2C1 (stereo unspecified)
**A:** inactive

**Q:** Which result was noted for this compound in the test: COc1ccc(CC2C(=O)NC(C)C(=O)N(C)C3Cc4ccc(cc4)Oc4cc(ccc4OC4OC(CO)C(O)C(O)C4O)CC(C(=O)NC(C)C(=O)NC(C)C(=O)N2C)N(C)C3=O)cc1 (stereo unspecified)
**A:** active

**Q:** Which result was noted for this compound in the test: CS(=O)(=O)c1ccc([C@H](CC2CCCC2)C(=O)Nc2nccs2)cc1
**A:** inactive

**Q:** Which result was noted for this compound in the test: O=C(CSc1nc2c(c(=O)n1-c1ccccc1)SCC2)Nc1ccc(-c2ccccc2)cn1
**A:** active

**Q:** Which result was noted for this compound in the test: COc1cc2ncnc(Nc3cccc(O)c3)c2cc1OC
**A:** inactive

**Q:** Which result was noted for this compound in the test: C[C@@H]1CC[C@]2(C(=O)O)CC[C@]3(C)C(=CCC4[C@@]5(C)CC[C@H](O)C(C)(C)C5C(O)C[C@]43C)[C@@H]2[C@]1(C)O (stereo partly specified)
**A:** inactive

**Q:** Which result was noted for this compound in the test: CC#CC(=O)N1CCC[C@H]1c1nc(-c2ccc(C(=O)Nc3ccccn3)cc2)c2c(N)nccn12
**A:** inactive

**Q:** Which result was noted for this compound in the test: COc1nc2sc(C(=O)NC3CC3)c(N)c2c(C)c1Cl
**A:** inactive

**Q:** Which result was noted for this compound in the test: CC1NC(=O)CCCNC(=O)C(Cc2c[nH]c3ccccc23)NC(=O)C(C)NC(=O)C(C(C)C)NC(=O)C(C(C)c2ccccc2)NC(=O)C(C(C)C)NC1=O (stereo not drawn) (cyclo([GABA]AV[ξPhe(βξ-Me)]VAW); configuration not given here)
**A:** inactive

**Q:** Which result was noted for this compound in the test: COC(=O)N[C@@H](C)CNc1nccc(-c2cn(C(C)C)nc2-c2cc(Cl)cc(NS(C)(=O)=O)c2F)n1
**A:** inactive

**Q:** Which result was noted for this compound in the test: C#CC[C@H](c1nc2cc(Cl)ccc2c(=O)n1Nc1ccccc1)N(CCCN)C(=O)c1cccc(Cl)c1F
**A:** active

**Q:** Which result was noted for this compound in the test: CC[C@]12C=CCN3CC[C@@]4(c5cc([C@@]6(C(=O)OC)C[C@H]7C[C@@H](C(C)(F)F)CN(Cc8c6[nH]c6ccccc86)C7)c(OC)cc5N(C)[C@H]4[C@@](O)(C(=O)OC)[C@@H]1OC(C)=O)[C@@H]32
**A:** active

**Q:** Which result was noted for this compound in the test: C[C@H](C(=O)NC1CCCC1)N(C(=O)Cn1nnc(-c2ccc3c(c2)OCO3)n1)C1CCCCC1
**A:** inactive

**Q:** Which result was noted for this compound in the test: C=C(C(=O)O)C1CCC2(C)CCCC(C)(O)C2C1 (stereo unspecified)
**A:** inactive

**Q:** Which result was noted for this compound in the test: Cn1cc(S(=O)(=O)c2ccc(Cl)cc2)c2cccc(N3CCNCC3)c21
**A:** active

**Q:** Which result was noted for this compound in the test: COc1ccccc1NC(=O)OCC1CCN(C(=O)OC(C)(C)C)CC1
**A:** inactive

**Q:** Which result was noted for this compound in the test: C=C1C[C@]23C[C@H]1CC[C@H]2[C@]1(C)CCC[C@@](C)(C(=O)O)[C@H]1[C@@H]3C(=O)O
**A:** inactive

**Q:** Which result was noted for this compound in the test: Cc1noc(-c2ccc(-c3ccc(CC(=O)O)cc3)cc2)c1NC(=O)O[C@H](C)c1ccccc1
**A:** inactive

**Q:** Which result was noted for this compound in the test: O=C(Nc1ccccc1-c1cn2c(CN3CCNCC3)csc2n1)c1ccc2ccccc2n1
**A:** inactive

**Q:** Which result was noted for this compound in the test: CC(C)(F)C[C@@H](N[C@@H](c1ccc(-c2ccc(S(C)(=O)=O)cc2)cc1)C(F)(F)F)C(=O)NC1(C#N)CC1
**A:** inactive

**Q:** Which result was noted for this compound in the test: C[C@@H]1O[C@@H](O[C@H]2[C@H](O)[C@@H](O)[C@H](OC3CCC4(C)C5CCC(C)(C(CO)OC6OC(CO)C(O)C(O)C6O)CC5=CCC4C3(C)C)O[C@@H]2CO)[C@H](O)[C@H](O)[C@H]1O (stereo partly specified)
**A:** inactive

**Q:** Which result was noted for this compound in the test: C=C1[C@H](OC(C)=O)[C@H]2[C@@H](OC(C)=O)[C@](C)(OC(C)=O)C[C@]2(OC(C)=O)C(=O)[C@H](C)/C=C/C(C)(C)C(=O)[C@H](OC(=O)C(C)C)[C@H]1OC(C)=O
**A:** inactive

**Q:** Which result was noted for this compound in the test: CC(=O)O[C@]1(C(C)=O)CC[C@H]2[C@@H]3C[C@H](C)C4=CC(=O)C=C[C@]4(C)[C@@]3(F)[C@@H](O)C[C@@]21C
**A:** inactive

---

# experiment-description: qHTS drug screen for cell cycle checkpoint inhibitors in PARPi-resistant BRCA-mutant ovarian cancer cell lines. (AID 1963452)
# condition-summary: PEO1/OlaR viability, CellTiter-Glo luminescence, 96 h; active compounds read low
assay-metric: Z-AUC
# answer = number (no unit)

**Q:** Query (compound): Cc1cccc(Oc2cnc(=O)[nH]c2)c1 ; field requested: Z-AUC
**A:** -0.692

**Q:** Query (compound): CNC(=O)c1cccc(-c2ccc3c(N4CCOC[C@@H]4C)nc(N4CCOC[C@@H]4C)nc3n2)c1 ; field requested: Z-AUC
**A:** -1.02

**Q:** Query (compound): CCS(=O)(=O)N1CCN(c2ccc(Nc3ncc(C(N)=O)c(NC4CC4)n3)cc2)CC1 ; field requested: Z-AUC
**A:** 0.319

**Q:** Query (compound): Cc1ccc([N+](=O)[O-])cc1S(=O)(=O)N(C)/N=C/c1cnc2ccc(Br)cn12 ; field requested: Z-AUC
**A:** -2.4

**Q:** Query (compound): Cc1cc(OCc2nnc(SC3CCCC3)n2-c2cccnc2)ccc1-c1ccc(S(C)(=O)=O)cc1 ; field requested: Z-AUC
**A:** -1.33

---

# Test system: Hek293T
# experiment-description: Primary qHTS to identify gynecologic anti-cancer compounds using libraries of approved drugs and bioactive compounds (AID 1345084); also: nearly all actives have a fitted effect of over 55% in size; as to activity change, negative = cytotoxicity: % is scaled to controls: 0 for no effect and ±100 for the full control effect
# condition-summary: Gynecologic cancer cell panel viability, ATPlite luminescence, 48 h, control line for the selectivity index; series mostly up to 57.5 µM
Records with an inconclusive call do not appear. Calls of active or inactive are those of the source. Calls follow the shape of the dose curve; as a rule, active = well fitted cell-killing curve with a large enough effect; inconclusive = small, poorly fitted or top-dose-only effect, or effect the other way; inactive = flat fitted curve, though single readings scatter.
assay-metric: activity change, negative = cytotoxicity

**Q:** Can you look up activity change, negative = cytotoxicity on Hek293T for CC(C)=CCC[C@](C)(O[C@@H]1O[C@H](CO[C@@H]2O[C@H](CO)[C@@H](O)[C@H](O)[C@H]2O)[C@@H](O)[C@H](O)[C@H]1O)C1CC[C@]2(C)[C@@H]1[C@H](O)CC1[C@@]3(C)CC[C@H](O[C@@H]4O[C@H](CO)[C@@H](O)[C@H](O)[C@H]4O[C@@H]4O[C@H](CO)[C@@H](O)[C@H](O)[C@H]4O)C(C)(C)[C@@H]3CC[C@]12C (some centres not stated) ?
**A:** -3.2% [at 11.6 µM] (inactive)

**Q:** Can you look up activity change, negative = cytotoxicity on Hek293T for C[C@@H]1O[C@@H](O[C@@H]2CO[C@@H](O[C@H]3CC[C@@]4(C)C(CC[C@]5(C)C4CC=C4[C@@H]6CC(C)(C)CC[C@]6(C(=O)O[C@@H]6O[C@H](CO)[C@@H](O)[C@H](O)[C@H]6O)CC[C@]45C)[C@]3(C)CO)[C@H](O)[C@H]2O[C@@H]2O[C@H](CO)[C@@H](O)[C@H](O)[C@H]2O)[C@H](O)[C@H](O)[C@H]1O (some centres not stated) ?
**A:** -12.7% [at 11.6 µM] (inactive)

Data provenance is PubChem BioAssay (NCATS).
